Target: Phosphorylase b kinase gamma catalytic chain, skeletal muscle/heart isoform (Homo sapiens);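 note: each value is a mean percent inhibition of PHKG1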
Conditions: at 1 µM
Quick reference for inhibition among some compounds

Compound: C[C@@H](Oc1cc(-n2cnc3ccc(OC[C@@H](O)CO)cc32)sc1C(N)=O)c1ccccc1Cl
inhibition: 4.08%

Compound: FC(F)(F)c1ccc(-c2nn3ncccc3c2-c2ccnc(Nc3ccc4c(c3)OCCO4)n2)cc1
inhibition: 8.64%

Compound: Cc1ccc2c(-c3ccnc(Nc4cccc(C(F)(F)F)c4)n3)c(-c3ccccc3)nn2n1
inhibition: 7.08%

Compound: CCOc1nccc2c1nc(-c1nonc1N)n2CC
inhibition: 5.97%

Compound: CCCN1CCCC(c2ccc(Nc3nc(Nc4cc(F)ccc4C(N)=O)c4cc[nH]c4n3)c(OC)c2)C1 (centres undefined)
inhibition: 77.8%

Compound: Cc1ccc(Nc2ccnc(Nc3cccc(C(N)=O)c3)n2)cc1O
inhibition: 10.4%

Compound: Nc1nccc(C#Cc2cncnc2Nc2ccc(OCc3cccc(F)c3)c(Cl)c2)n1
inhibition: 27.5%

Compound: O=C(Nc1ccc(Oc2ccc3[nH]c(NC(=O)c4ccco4)nc3c2)cc1)Nc1cc(C(F)(F)F)ccc1F
inhibition: 8.29%

Compound: c1ccc(Cc2nc3ccc(Nc4ncnc5ccccc45)cc3[nH]2)cc1
inhibition: 4.75%
